# Assay conditions: 293.15 K; 101.3 kPa; Liquid; Pycnometric method
Where a name gives a salt, the structure may show the parent alone.
Endpoint label: mass density (kg/m3)

CC1(C)OCC(CO)O1 (centres undefined) [2,2-dimethyl-1,3-dioxolane-4-methanol]; 1067.8
CCOC(=O)CC(CC(=O)OCC)(OC(C)=O)C(=O)OCC [triethyl acetyl citrate]; 1142.1
CC(=O)OCC(COC(C)=O)OC(C)=O [glyceryl triethanoate]; 1158.3
CCOC(=O)CC(O)(CC(=O)OCC)C(=O)OCC [triethyl citrate]; 1137.1

###

# Assay conditions: 303.15 K; 101.3 kPa; Liquid; Pycnometric method
Counter-ions that a name gives are not always drawn.
Endpoint label: mass density (kg/m3)

CCOC(=O)CC(O)(CC(=O)OCC)C(=O)OCC [triethyl citrate]; 1131.3
CCOC(=O)CC(CC(=O)OCC)(OC(C)=O)C(=O)OCC [triethyl acetyl citrate]; 1134.1
CC1(C)OCC(CO)O1 (centres undefined); 1058.9
CC(=O)OCC(COC(C)=O)OC(C)=O [glyceryl triethanoate]; 1147.3

###

# Assay conditions: 298.15 K; 101.33 kPa; Liquid; Capillary tube (Ostwald / Ubbelohde) method
Counter-ions that a name gives are not always drawn.
Endpoint label: viscosity (mPa·s)

(I) CC1(C)OCC(CO)O1 (centres undefined)
(II) CCOC(=O)CC(O)(CC(=O)OCC)C(=O)OCC [triethyl citrate]
(III) CC(=O)OCC(COC(C)=O)OC(C)=O [glyceryl triethanoate]
(IV) CCOC(=O)CC(CC(=O)OCC)(OC(C)=O)C(=O)OCC [triethyl acetyl citrate]
With the 4 compounds above, produce a list ordered by ascending viscosity. Your reply should list the labels following the order given in the request.
I, III, II, IV
(I: 10.06 mPa·s, III: 16.36 mPa·s, II: 32.1 mPa·s, IV: 46.55 mPa·s)

###

# Assay conditions: 313.15 K; 101.3 kPa; Liquid; Pycnometric method
Counter-ions that a name gives are not always drawn.
Endpoint label: mass density (kg/m3)

CC1(C)OCC(CO)O1 (centres undefined); 1049.9
CCOC(=O)CC(O)(CC(=O)OCC)C(=O)OCC [triethyl citrate]; 1122.4
CC(=O)OCC(COC(C)=O)OC(C)=O [glyceryl triethanoate]; 1136.6
CCOC(=O)CC(CC(=O)OCC)(OC(C)=O)C(=O)OCC [triethyl acetyl citrate]; 1124.2

###

# Assay conditions: 323.15 K; 101.3 kPa; Liquid; Pycnometric method
Where a name gives a salt, the structure may show the parent alone.
Endpoint label: mass density (kg/m3)

CC(=O)OCC(COC(C)=O)OC(C)=O [glyceryl triethanoate]; 1125.7
CCOC(=O)CC(O)(CC(=O)OCC)C(=O)OCC [triethyl citrate]; 1114
CC1(C)OCC(CO)O1 (centres undefined); 1040.8
CCOC(=O)CC(CC(=O)OCC)(OC(C)=O)C(=O)OCC [triethyl acetyl citrate]; 1112.9
